- system: DPP4 (Homo sapiens)
- experiment: DPP4 activity assay (DPP4 inhibitor screening assay kit, Cayman)
- Format: biochemical
- Parameters: purchased Cayman Chemical, Ann Arbor, MI, USA
- conditionDescription: 10 µM; control mean 100.0; mean of Exp 1-3
readoutType: DPP4 activity in library screen, Mean
Form rule: numeric answer, no unit written next to it.

Look over these answered cases.
O=c1c(O)c(-c2ccc(O)c(O)c2)oc2cc(O)cc(O)c12 [Quercetin Dihydrate] : 58.0
C[C@@H]1O[C@@H](O[C@H]2[C@H](Oc3cc(O)c(C(=O)CCc4ccc(O)cc4)c(O)c3)O[C@H](CO)[C@@H](O)[C@@H]2O)[C@H](O)[C@H](O)[C@H]1O [Naringin Dihydrochalcone] : 86.1

Consider CC1(C)CCC[C@]2(C)[C@H]3CC(=O)O[C@]3(C)CC[C@@H]12 [Sclareolide] . Its measured DPP4 activity in library screen, Mean is 85.3

DPP4 activity in library screen, Mean recorded for this molecule, C=C1C[C@@]2(O)O[C@@]3(C[C@H]2C(C)C)[C@@H](C)CC[C@@H]13 [Curcumol] , is 103.6

----------
- system: DPP4 (Homo sapiens, UniProt P27487)
- Sequence (P27487 whole entry): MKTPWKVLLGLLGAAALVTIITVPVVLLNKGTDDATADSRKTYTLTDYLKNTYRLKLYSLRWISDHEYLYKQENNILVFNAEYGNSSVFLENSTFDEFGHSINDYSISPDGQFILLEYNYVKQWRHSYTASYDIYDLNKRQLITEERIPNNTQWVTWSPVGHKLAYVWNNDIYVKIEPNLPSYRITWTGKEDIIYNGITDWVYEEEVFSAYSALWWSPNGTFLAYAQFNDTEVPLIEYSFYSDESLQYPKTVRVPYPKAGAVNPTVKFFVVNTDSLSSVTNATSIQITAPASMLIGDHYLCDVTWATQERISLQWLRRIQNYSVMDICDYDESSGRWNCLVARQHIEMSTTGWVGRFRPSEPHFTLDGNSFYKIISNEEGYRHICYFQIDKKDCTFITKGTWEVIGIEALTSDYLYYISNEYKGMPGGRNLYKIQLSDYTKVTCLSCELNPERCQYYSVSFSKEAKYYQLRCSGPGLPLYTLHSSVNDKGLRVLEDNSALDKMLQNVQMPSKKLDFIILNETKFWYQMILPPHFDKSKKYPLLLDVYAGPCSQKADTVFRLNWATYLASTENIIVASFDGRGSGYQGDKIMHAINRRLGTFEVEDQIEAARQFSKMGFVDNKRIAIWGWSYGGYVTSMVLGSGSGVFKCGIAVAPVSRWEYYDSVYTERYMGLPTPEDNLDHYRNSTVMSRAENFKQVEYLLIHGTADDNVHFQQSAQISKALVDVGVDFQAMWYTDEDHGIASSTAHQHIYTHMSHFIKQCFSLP
- experiment: DPP4 activity assay (DPP4 inhibitor screening assay kit, Cayman)
- Format: biochemical
- Design: purchased Cayman Chemical, Ann Arbor, MI, USA
- conditionDescription: 0.5 h, 10 µM; control mean 100.0; Figure 1A raw data; read-out: DPP4 activity in library screen, Exp 1
For each record, check the reported remaining activity at 10 µM: if it is below 90% write Satisfied, else write Not satisfied.

COc1ccc(-c2coc3cc(O)ccc3c2=O)cc1 : Not satisfied
COc1cc(O)c(CC=C(C)C)c(O)c1C(=O)/C=C/c1ccc(O)cc1 : Not satisfied
COc1c(O)cc2c(c1O)[C@@H]1O[C@H](CO)[C@@H](O)[C@H](O)[C@H]1OC2=O : Not satisfied
O=C1c2c(O)cc(O)cc2O[C@H](c2cc(O)c(O)c(O)c2)[C@H]1O [Dihydromyricetin] : Not satisfied
O=C1C[C@@H](c2ccc(O)cc2)Oc2cc(O)cc(O)c21 : Satisfied

-- ask Does the reported remaining activity at 10 µM of `O=c1c2ccccc2nc2n1CCc1c-2[nH]c2ccccc12` stay below 90%?
-- reply Satisfied

-- ask Dear colleague, could you confirm whether remaining activity at 10 µM of `O=c1c(O)c(-c2ccc(O)c(O)c2)oc2cc(O)cc(O)c12` falls below 90%? Thanks.
-- reply Satisfied

----------
- system: DPP4 (Homo sapiens, UniProt P27487)
- experiment: DPP4 activity assay (DPP4 inhibitor screening assay kit, Cayman);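 also: fluorescence read at excitation 360 nm and emission 460 nm after the enzyme reaction ran 30 min at 37 °C in a 96-well plate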
- Format: biochemical
- Parameters: purchased Cayman Chemical, Ann Arbor, MI, USA
- conditionDescription: 0.5 h, 10 µM; control mean 100.0; Figure 1A raw data; read-out: DPP4 activity in library screen, Exp 3
Define the label as label 1 when remaining activity at 10 µM is strictly less than 90% and as label 0 in all remaining cases.

O=c1c(O)c(-c2ccc(O)c(O)c2)oc2cc(O)cc(O)c12 [Quercetin] : label 1

Let us examine a further case.
-- ask Please indicate whether the reported remaining activity at 10 µM of O=C1c2c(O)cc(O)cc2O[C@H](c2cc(O)c(O)c(O)c2)[C@H]1O [Dihydromyricetin] is strictly below 90%.
-- reply label 1

----------
- system: DPP4 (Homo sapiens)
- experiment: DPP4 activity assay (DPP4 inhibitor screening assay kit, Cayman)
- Format: biochemical
- Parameters: purchased Cayman Chemical, Ann Arbor, MI, USA
- conditionDescription: 0.5 h, 10 µM; control mean 100.0; mean of Exp 1-3; read-out: DPP4 activity in library screen, Mean
readoutType: remaining activity at 10 µM (%)
Give the quantity in %, number only.

CN(C)Cc1c[nH]c2ccccc12 [Gramine] : 94.4
CC1(C)[C@@H](O)CC[C@]2(C)[C@H]3C(=O)C=C4[C@@H]5C[C@@](C)(C(=O)O)CC[C@]5(C)CC[C@@]4(C)[C@]3(C)CC[C@@H]12 [Enoxolone] : 88.9
O=c1cc(-c2ccc(O)cc2)oc2cc(O)cc(O)c12 [Apigenin] : 78.5
O=C1c2c(O)cc(O)cc2O[C@H](c2cc(O)c(O)c(O)c2)[C@H]1O [Dihydromyricetin] : 87.3
CCCC[N+]1(C)[C@@H]2C[C@@H](OC(=O)[C@H](CO)c3ccccc3)C[C@H]1[C@@H]1O[C@@H]12 (some centres unmarked) [Butylscopolamine bromide] : 91.5
CC1(C)O[C@H]2CC(=O)OC[C@]23[C@H]2CC[C@@]4(C)[C@H](c5ccoc5)OC(=O)[C@H]5O[C@]54[C@]2(C)C(=O)C[C@@H]13 [Limonin] : 101
COc1ccc([C@@H]2CC(=O)c3c(O)cc(O)cc3O2)cc1O [Hesperetin] : 88.4

Kindly consider the entry below.
The value of remaining activity at 10 µM measured for the compound CC[C@@]1(O)C(=O)OCc2c1cc1n(c2=O)Cc2cc3cc(O)ccc3nc2-1 [(S)-10-Hydroxycamptothecin] turned out to be 83.6

----------
Items are presented alongside their recorded remaining activity at 10 µM.
- system: UniProtKB P27487
- experiment: DPP4 activity assay (DPP4 inhibitor screening assay kit, Cayman)
- Format: biochemical
- Parameters: purchased Cayman Chemical, Ann Arbor, MI, USA
- conditionDescription: 0.5 h, 10 µM; control mean 100.0; Figure 1A raw data; read-out: DPP4 activity in library screen, Exp 3
Give your result in % as a bare value.

Noted for `C[C@H]1[C@H](C)CC[C@]2(C(=O)O)CC[C@]3(C)C(=CC[C@@H]4[C@@]5(C)C[C@@H](O)[C@H](O)[C@@](C)(CO)[C@@H]5CC[C@]43C)[C@H]12` : its remaining activity at 10 µM reads 130

Lookup result for `COc1cc2c(cc1OC)[C@@H]1Cc3ccc(OC)c(OC)c3CN1CC2` ; measured remaining activity at 10 µM: 104

----------
- system: DPP4 (Homo sapiens)
- experiment: DPP4 activity assay (DPP4 inhibitor screening assay kit, Cayman)
- Format: biochemical
- Parameters: purchased Cayman Chemical, Ann Arbor, MI, USA
- conditionDescription: 0.5 h, 10 µM; control mean 100.0; Figure 1A raw data; read-out: DPP4 activity in library screen, Exp 2
Listing of entries alongside the reported remaining activity at 10 µM.
Record the value in %, omitting the unit from your answer.

# annotated cases, reported remaining activity at 10 µM shown
OC[C@H]1O[C@@H](OCCc2ccc(O)cc2)[C@H](O)[C@@H](O)[C@@H]1O [Salidroside] : 97.1
c1cc2c(cc1[C@H]1OC[C@H]3[C@@H]1CO[C@@H]3c1ccc3c(c1)OCO3)OCO2 : 90

Then this compound:
With DPP4 (Homo sapiens) as the test system, `CCn1cc(C(=O)O)c(=O)c2ccc(C)nc21` showed remaining activity at 10 µM of 94.7

----------
- system: DPP4 (Homo sapiens)
- experiment: DPP4 activity assay (DPP4 inhibitor screening assay kit, Cayman)
- Type: biochemical
- Design: purchased Cayman Chemical, Ann Arbor, MI, USA
- conditionDescription: 0.5 h, 10 µM; control mean 100.0; Figure 1A raw data; read-out: DPP4 activity in library screen, Exp 2
readoutType: remaining activity at 10 µM (%)
// return numeric value only (unit: %, not printed)

COc1ccc([C@@H]2CC(=O)c3c(O)cc(O)cc3O2)cc1O [Hesperetin] : 106
OC[C@H]1O[C@@H](Oc2cc(O)cc(/C=C/c3ccc(O)cc3)c2)[C@H](O)[C@@H](O)[C@@H]1O [Polydatin] : 81.3
O=C(CCc1ccc(O)cc1)c1c(O)cc(O)cc1O [Phloretin] : 90.5
O=C(O[C@@H]1Cc2c(O)cc(O)cc2O[C@@H]1c1cc(O)c(O)c(O)c1)c1cc(O)c(O)c(O)c1 [(-)-Epigallocatechin Gallate] : 90.2

Entry under test: CC[C@H](CC[C@@H](C)[C@H]1CC[C@H]2[C@@H]3CC=C4C[C@@H](O)CC[C@]4(C)[C@H]3CC[C@]12C)C(C)C [beta-sitosterol] . Its remaining activity at 10 µM was 92.3

Measured remaining activity at 10 µM of O=C1C[C@@H](c2ccc(O)cc2)Oc2cc(O)cc(O)c21 [Naringenin] : 87.5

The recorded remaining activity at 10 µM for OCc1ccccc1O[C@@H]1O[C@H](CO)[C@@H](O)[C@H](O)[C@H]1O [Salicin] is 94.5

Quick note, remaining activity at 10 µM for C[C@H]1C(=O)O[C@@H]2CCN3CC=C(COC(=O)[C@](C)(O)[C@]1(C)O)[C@H]23 [Monocrotaline] landed at 95.8

Documented remaining activity at 10 µM of O=c1c(O)c(-c2ccc(O)cc2)oc2cc(O)cc(O)c12 [Kaempferol] : 72.5

C[C@@H]1O[C@@H](O[C@H]2[C@H](Oc3cc(O)c4c(c3)O[C@H](c3ccc(O)cc3)CC4=O)O[C@H](CO)[C@@H](O)[C@@H]2O)[C@H](O)[C@H](O)[C@H]1O [Naringin] has a reported remaining activity at 10 µM of 82.6

compound O=C1c2c(O)cc(O)cc2OC(c2ccc(O)c(O)c2)C1O (centres unmarked) [Taxifolin (Dihydroquercetin), Taxifolin] , remaining activity at 10 µM observed: 83.2

Form: compound = COc1ccc([C@@]23Oc4cc(OC)cc(OC)c4[C@]2(O)[C@H](O)[C@H](C(=O)N(C)C)[C@H]3c2ccccc2)cc1 [Rocaglamide] ; remaining activity at 10 µM = 100

Briefly, remaining activity at 10 µM measured for Cc1cc(O)c2c(c1)C(=O)c1cccc(O)c1C2=O [Chrysophanol] : 60

What the record says about C[C@H](NCc1ccc(OCc2cccc(F)c2)cc1)C(N)=O [Safinamide] : remaining activity at 10 µM is 98.3

Given item O=C(O)Cc1c[nH]c2ccccc12 [Indole-3-acetic acid] , the value recorded as its remaining activity at 10 µM is 108

Consider C/C=C1/[C@H](O[C@@H]2O[C@H](CO)[C@@H](O)[C@H](O)[C@H]2O)OC=C(C(=O)OC)[C@H]1CC(=O)OCCc1ccc(O)c(O)c1 [Oleuropein] . Its measured remaining activity at 10 µM is 101

For reference, reported remaining activity at 10 µM for COc1cc(C2Oc3cc([C@H]4Oc5cc(O)cc(O)c5C(=O)[C@@H]4O)ccc3OC2CO)ccc1O (some centres unmarked) [Silibinin] stands at 76.8

Where do these numbers come from? They come from paper PMC5428354.
